- target-of-assay: Presenilin-1 (Homo sapiens, UniProt P49768)
- procedure-summary: Inhibition of wild-type human presenilin-1 stably overexpressed in CHO cells co-expressing wild-type human amyloid precursor protein assessed as inhibition of amyloid beta 42 formation after 24 hrs by ELISA
metric: IC50 (µM)
Field: numeric (µM). Do not append units.

// returns reported IC50 for input CCCC/C(=C\c1cc(OCc2ccc(-c3ccccc3)cc2)ccc1OCc1ccc(C(F)(F)F)cc1)C(=O)O 11.9

// returns reported IC50 for input CCCC/C(=C\c1cc(-c2ccccc2)ccc1OCc1ccc(C(F)(F)F)cc1)C(=O)O 11.9

// returns reported IC50 for input CCCC/C(=C\c1cc(OCc2ccc(OCc3ccccc3)cc2)ccc1OCc1ccc(C(F)(F)F)cc1)C(=O)O 8.5

// returns reported IC50 for input CCCC/C(=C\c1cc(OCC(c2ccccc2)c2ccccc2)ccc1OCc1ccc(C(F)(F)F)cc1)C(=O)O 11.4
